target: LXRβ (Homo sapiens); construct: Co-transfection expression plasmids, comprising full-length LXRα (pCMX-h LXRα[…] or LXRβ (pCMX-hLXRβ)); expressed in transfected cells; host or cells: CV-1 African Green Monkey Kidney Cells; assay: Co-transfection assay (LXRE luciferase reporter), LXRβ; type: cell-based; conditions: LXRβ co-transfection; relative to high control 1-(2,4-difluorobenzyl)-2-oxo-6-(4-phenoxyphenyl)-4-(trifluoromethyl)-1,2-dihydropyridine-3-carbonitrile; read-out: % Efficacy
metric_name: Emax (%)

Some solved entries appear below for comparison.
Cc1ccc(C(C)c2cnnn2-c2cc(-c3cccc(S(C)(=O)=O)c3)ccc2-n2cc(C(F)(F)F)nc2C)cc1 (stereo not shown) [Example 111]: 92
CCOCc1ccc(-c2ccc(-n3cc(C(F)(F)F)nc3C)c(-n3nncc3-c3ccc(OC(F)(F)F)cc3)c2)cc1S(C)(=O)=O [Example 85]: 123
COc1cnc(-c2oc(C)nc2-c2cc(-c3cc(F)c(CO)c(S(C)(=O)=O)c3)ccc2-n2cc(C(F)(F)F)nc2C)cn1 [Example 413]: 63
Cc1nc(C(F)(F)F)cn1-c1ccc(-c2cccc(S(C)(=O)=O)c2)cc1-n1nncc1C(C)(C)c1ccc(Cl)cc1 [Example 222]: 43
CS(=O)(=O)c1cc(-c2cc(Cl)c(-n3cnc(C(F)(F)F)c3)c(-n3nncc3-c3ccc(OC(F)(F)F)cc3)c2)cc(F)c1CO [Example 193]: 62

P = Cc1nc(-c2cc(-c3cccc(S(C)(=O)=O)c3)ccc2-n2cc(C(F)(F)F)nc2C)c(-c2ccc(OC3CCCCC3)nc2)o1 [Example 408]
Q = Cc1nc(-c2ccc(Cl)cc2)c(-c2cc(-c3cccc(S(C)(=O)=O)c3)ccc2-n2cc(C(F)(F)F)nc2C)o1 [Example 605]
[Q] Given the listed records, identify the one among P and Q with higher Emax. # reply format: chosen label
[A] Q
(Q: 89%, P: 55%)

I = Cc1nc(-c2cc(-c3cccc(S(C)(=O)=O)c3)ccc2-n2cc(C(F)(F)F)nc2C)c(-c2cccn(C(C)C)c2=O)o1 [Example 379]
II = Cc1nc(-c2cc(-c3cccc(S(C)(=O)=O)c3)ccc2-n2cc(C(F)(F)F)nc2C)c(-c2ccc(C(F)(F)F)cc2)o1 [Example 513]
[Q] Which value of Emax is numerically greater: that of I or that of II ? # answer = label of selected item
[A] II

---

target: LXRβ (Homo sapiens, UniProt P55055); construct: Co-transfection expression plasmids, comprising full-length LXRα (pCMX-h LXRα[…] or LXRβ (pCMX-hLXRβ)); expressed in transfected cells; host or cells: CV-1 African Green Monkey Kidney Cells; assay: Co-transfection assay (LXRE luciferase reporter), LXRβ; format: cell-based; conditions: LXRβ co-transfection; relative to high control 1-(2,4-difluorobenzyl)-2-oxo-6-(4-phenoxyphenyl)-4-(trifluoromethyl)-1,2-dihydropyridine-3-carbonitrile; read-out: % Efficacy
metric_name: Emax (%)

Examples from the recorded data:
Cc1nc(C(F)(F)F)cn1-c1ccc(-c2cccc(S(C)(=O)=O)c2)cc1-n1nncc1-c1ccc(F)cc1F [Example 40]: 87
CNS(=O)(=O)c1cccc(-c2ccc(-n3cc(C(C)(F)F)nc3C)c(-n3nncc3-c3ccc(OC(F)(F)F)cc3)c2)c1 [Example 175]: 79
CCC(F)(F)c1cn(-c2ccc(-c3cccc(S(=O)(=O)N(C)C)c3)cc2-n2nncc2-c2ccc(OC(F)(F)F)cc2)c(C)n1 [Example 182]: 78

A = Cc1nc(C(F)(F)F)cn1-c1ccc(-c2cccc(S(C)(=O)=O)c2)cc1-c1ncoc1-c1ccc(Cl)cc1 [Example 354]
B = COc1ccc(-c2cnnn2-c2cc(-c3cccc(S(C)(=O)=O)c3)ccc2-n2cc(C(F)(F)F)nc2C)cc1OC(F)F [Example 42]
C = CS(=O)(=O)c1cc(-c2ccc(-n3cc(C(F)(F)F)nc3Cl)c(-n3nncc3-c3ccc(Cl)cc3Cl)c2)cc(F)c1CO [Example 145]
[Q] # desc sort on Emax across 3 compounds Answer by writing out the labels in the requested order.
[A] C, A, B

a = Cc1nc(-c2cc(-c3cc(F)c(CCO)c(S(C)(=O)=O)c3)ccc2-n2cc(C(F)(F)F)nc2C)c(-c2ccc(OC(F)(F)F)cc2)o1 [Example 529]
b = Cc1nc(C2CC2)cn1-c1ccc(-c2cccc(S(C)(=O)=O)c2)cc1-n1nncc1-c1ccc(Cl)cc1 [Example 228]
[Q] // which entry reports the smaller Emax, a or b ? Answer by quoting the chosen item's label.
[A] b

I = CCCCOc1ccc(-c2cnnn2-c2cc(-c3cccc(S(C)(=O)=O)c3)ccc2-n2cc(C(F)(F)F)nc2C)cc1 [Example 30]
II = COCCc1nc(-c2cc(-c3cc(F)c(CO)c(S(C)(=O)=O)c3)ccc2-n2cc(C(F)(F)F)nc2C)c(-c2ccc(OC(F)(F)F)cc2)o1 [Example 527]
[Q] // compare measured Emax, left I , right II , return larger The response must carry the label of the picked entry.
[A] I
(I: 85%, II: 54%)

---

Molecular target: LXRβ (Homo sapiens, UniProt P55055)
Construct: Co-transfection expression plasmids, comprising full-length LXRα (pCMX-h LXRα[…] or LXRβ (pCMX-hLXRβ)); expressed in transfected cells; host or cells: CV-1 African Green Monkey Kidney Cells
Sequence (P55055 1-460): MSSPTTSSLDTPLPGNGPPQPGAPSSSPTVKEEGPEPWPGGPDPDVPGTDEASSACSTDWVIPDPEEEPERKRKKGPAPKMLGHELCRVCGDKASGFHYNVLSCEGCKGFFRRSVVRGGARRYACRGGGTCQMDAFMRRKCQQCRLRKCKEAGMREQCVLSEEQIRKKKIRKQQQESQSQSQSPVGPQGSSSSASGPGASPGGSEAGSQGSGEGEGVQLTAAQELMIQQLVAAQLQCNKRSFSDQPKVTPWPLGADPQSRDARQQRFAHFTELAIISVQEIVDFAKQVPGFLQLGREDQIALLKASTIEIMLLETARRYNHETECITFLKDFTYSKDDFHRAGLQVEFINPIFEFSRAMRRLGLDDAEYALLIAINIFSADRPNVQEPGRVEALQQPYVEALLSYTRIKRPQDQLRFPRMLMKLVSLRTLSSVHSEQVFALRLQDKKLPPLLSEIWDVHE
Sequence (P19793 1-462 partner): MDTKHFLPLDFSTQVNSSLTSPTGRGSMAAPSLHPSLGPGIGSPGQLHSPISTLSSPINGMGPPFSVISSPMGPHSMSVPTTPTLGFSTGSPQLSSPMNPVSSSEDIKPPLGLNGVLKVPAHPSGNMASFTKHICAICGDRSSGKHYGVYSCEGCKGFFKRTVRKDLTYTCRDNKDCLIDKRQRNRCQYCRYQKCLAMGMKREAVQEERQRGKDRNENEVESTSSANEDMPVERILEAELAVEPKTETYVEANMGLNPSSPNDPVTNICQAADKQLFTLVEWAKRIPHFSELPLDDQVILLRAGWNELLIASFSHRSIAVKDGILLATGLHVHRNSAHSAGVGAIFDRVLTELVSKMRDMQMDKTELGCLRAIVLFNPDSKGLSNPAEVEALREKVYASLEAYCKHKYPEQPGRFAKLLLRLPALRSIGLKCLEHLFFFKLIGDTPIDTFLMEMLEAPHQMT
Experiment: Co-transfection assay (LXRE luciferase reporter), LXRβ
Format: cell-based
Conditions: LXRβ co-transfection; relative to high control 1-(2,4-difluorobenzyl)-2-oxo-6-(4-phenoxyphenyl)-4-(trifluoromethyl)-1,2-dihydropyridine-3-carbonitrile; read-out: % Efficacy
metric_name: Emax (%)

Reference set (5 entries):
Cc1nc(C(=O)NC(C)(C)C)cn1-c1ccc(-c2cccc(S(C)(=O)=O)c2)cc1-n1nncc1-c1ccc(OC(F)(F)F)cc1: 49
Cc1nc(C(F)F)cn1-c1ccc(-c2cccc(S(C)(=O)=O)c2)cc1-n1nncc1-c1ccc(OC(F)(F)F)cc1: 93
CCc1nc(-c2ccc(OC(F)(F)F)cc2)c(-c2cc(-c3cc(F)c(CO)c(S(C)(=O)=O)c3)ccc2-n2cc(C(F)(F)F)nc2C)o1: 101
Cc1cc(-c2cc(-c3ccc(CO)c(S(C)(=O)=O)c3)ccc2-n2cc(C(F)(F)F)nc2C)n(-c2ccc(OC(F)F)cc2)n1: 81
Cc1nc(C(F)(F)F)cn1-c1ccc(-c2ccc(CO)c(S(C)(=O)=O)c2)cc1-c1ccnn1-c1ccc(Cl)nc1: 71

a = Cc1nc(C(F)(F)F)cn1-c1ccc(-c2cccc(S(C)(=O)=O)c2)cc1-c1ccnn1-c1ccc(OC(F)(F)F)cc1
b = Cc1nc(C(F)(F)F)c(Cl)n1-c1ccc(-c2cc(F)c(CO)c(S(C)(=O)=O)c2)cc1-n1nncc1-c1ccc(OC(F)(F)F)cc1
c = Cc1nc(C(F)(F)F)cn1-c1ccc(-c2cc(F)c(CO)c(S(C)(=O)=O)c2)c(Cl)c1-n1nncc1-c1ccc(Cl)cc1Cl
[Q] Ordering criterion: Emax; begin with the maximum. Write the labels out in the order the request specifies.
[A] b, a, c
(b: 116%, a: 75%, c: 52%)

a = Cc1nc(-c2ccc(OC(F)(F)F)cc2)c(-c2cc(-c3ccc(CO)c(S(C)(=O)=O)c3)ccc2-n2cc(C(F)(F)F)nc2C)o1
b = Cc1nc(-c2cc(-c3cccc(S(C)(=O)=O)c3)ccc2-n2cc(C(F)(F)F)nc2C)c(-c2cc(F)cc(F)c2)o1
[Q] Determine, for a and b , which has the greater value of Emax. Field: selected label. Fill in the label of the entry you choose.
[A] a
(a: 92%, b: 64%)

Source of measurements: patent US9834542B2
